# System: NCI-H460 cells (K-Ras Q61H)
# test-protocol: 3D cell growth inhibition assay, NCI-H460
# Assay type: cell-based
# cond: Homo sapiens, 144 h, 6 days, absolute IC50
Please go through the items and note down their log10 IC50.
Values are log10 of IC50 in nM.

The cases that follow already have their log10 IC50 on record.
C#Cc1c(C)ccc2cc(O)cc(-c3ncc4c(N5CCCOCC5)nc(OC[C@@]56CCCN5C[C@H](F)C6)nc4c3F)c12 [Compound 38, trifluoroacetic acid] : 2.20
C#Cc1c(F)ccc2cc(O)cc(-c3ncc4c(N5CCCOC[C@H]5C)nc(OC[C@@]56CCCN5C[C@H](F)C6)nc4c3F)c12 (single isomer, unassigned) [Compound 16B] : 2.47
C#Cc1c(F)ccc2cc(O)cc(-c3ncc4c(N5CCCOCC5)nc(OC[C@@]56CCCN5C[C@H](F)C6)nc4c3F)c12 [Compound 1, trifluoroacetic acid] : 1.88
C#Cc1c(Cl)ccc2cc(O)cc(-c3ncc4c(N5CCCOCC5)nc(OC[C@@]56CCCN5C[C@H](F)C6)nc4c3F)c12 [Compound 39, trifluoroacetic acid] : 2.10

Then there is this compound:
Recorded log10 IC50 of C#Cc1c(F)ccc2cc(O)cc(-c3nc(NC)c4c(N5CCCOCC5)nc(OC[C@@]56CCCN5C[C@H](F)C6)nc4c3F)c12 [Compound 53, trifluoroacetic acid] , please. 1.38

* * *

# assayed-system: K-Ras G12V (Homo sapiens, UniProt P01116, G12V)
# Sequence (P01116 1-169 isoform P01116-2 G12V): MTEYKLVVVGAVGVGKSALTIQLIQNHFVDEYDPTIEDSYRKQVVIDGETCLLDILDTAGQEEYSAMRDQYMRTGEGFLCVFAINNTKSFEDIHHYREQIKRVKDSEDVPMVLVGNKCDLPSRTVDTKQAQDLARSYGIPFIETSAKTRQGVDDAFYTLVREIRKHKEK
# test-protocol: SOS1 catalyzed nucleotide exchange assay (GDP form K-Ras), K-Ras G12V
# cond: read-out: K-Ras G12V GDP Biochemical Activity (IC50)
Please go through the items and note down their pIC50.
Answers are plain numbers, as −log10 of the molar value.

C#Cc1c(F)ccc2cc(O)cc(-c3ncc4c(N5CCOC(C)CC5)nc(OC[C@@]56CCCN5C[C@H](F)C6)nc4c3F)c12 (some centres unmarked) : 7.57
C#Cc1c(F)ccc2cc(O)cc(-c3ncc4c(N5CCCOC[C@@H]5C)nc(OC[C@@]56CCCN5C[C@H](F)C6)nc4c3F)c12 (single isomer, unassigned) [Compound 16A] : 8.22
C#Cc1c(F)ccc2cc(O)cc(-c3ncc4c(N5CCCOCC5C)nc(OC[C@@]56CCCN5C[C@H](F)C6)nc4c3F)c12 (mixture of isomers) : 8.83
C#Cc1c(F)ccc2cc(O)cc(-c3ncc4c(N5CCCO[C@@H](CC#N)C5)nc(OC[C@@]56CCCN5C[C@H](F)C6)nc4c3F)c12 (single isomer, unassigned) [Compound 15B] : 9.06
C#Cc1c(F)ccc2cc(O)cc(-c3ncc4c(N5CCCOC[C@H]5C)nc(OC[C@@]56CCCN5C[C@H](F)C6)nc4c3F)c12 (single isomer, unassigned) [Compound 16B] : 9.05
C#Cc1c(F)ccc2cc(O)cc(-c3ncc4c(N5CCCOCC5)nc(OC[C@H]5CCCN5C)nc4c3F)c12 : 8.30
C#Cc1c(F)ccc2cc(O)cc(-c3nc(O)c4c(N5CCCOCC5)nc(OC[C@@]56CCCN5C[C@H](F)C6)nc4c3F)c12 : 8.60
C#Cc1c(F)ccc2cc(O)cc(-c3ncc4c(N5CCCO[C@H](C)C5)nc(OC[C@@]56CCCN5C[C@H](F)C6)nc4c3F)c12 (single isomer, unassigned) : 8.82

Provide the reported pIC50 of each entry below, same order.
1. C#Cc1c(F)ccc2cc(O)cc(-c3ncc4c(N5CCCOCC5)nc(OCC5CN(C(=O)C=C)CCN5C)nc4c3F)c12 (centres unmarked)
2. C#Cc1c(F)ccc2cc(O)cc(-c3ncc4c(N5CCOC[C@H](O)C5)nc(OC[C@@]56CCCN5C[C@H](F)C6)nc4c3F)c12 (single isomer, unassigned) [Compound 46A]
3. C#Cc1c(F)ccc2cc(O)cc(-c3ncc4c(N5CCOC[C@@H](OC)C5)nc(OC[C@@]56CCCN5C[C@H](F)C6)nc4c3F)c12 (single isomer, unassigned) [Compound 49A]

7.26
8.51
7.96
